tested on: rodent lifetime carcinogenesis bioassay, tumor incidence TD50; test: carcinogenic potency in animals, long-term in vivo studies, CPDB compilation (AID 1745844); conditions: rat; strain Sprague-Dawley; males; i.p.; site: liver; lesion: hepatocellular adenoma + hepatocellular carcinoma + neoplastic nodule; dosed 52 weeks; study length 81 weeks
parameter: TD50 (mg/kg/day)
Supply the numeric figure in mg/kg/day, leaving out any unit text.

The measured TD50 that CC(CN1CC(=O)NC(=O)C1)N1CC(=O)NC(=O)C1 (stereo unspecified) showed for rodent lifetime carcinogenesis bioassay, tumor incidence TD50 is 105

---

system: rodent lifetime carcinogenesis bioassay, tumor incidence TD50; assay: carcinogenic potency in animals, long-term in vivo studies, CPDB compilation (AID 1745844); settings: rat; strain Sprague-Dawley; males; by gavage; site: liver; lesion: hepatocellular carcinoma; dosed 167 weeks; study length 167 weeks
parameter: TD50 (mg/kg/day)
Supply the numeric figure in mg/kg/day, leaving out any unit text.

In plain terms, CC/C(=C(\c1ccccc1)c1ccc(OCCN(C)C)cc1)c1ccccc1 has a documented TD50 of 247

---

tested on: rodent lifetime carcinogenesis bioassay, tumor incidence TD50; experiment: carcinogenic potency in animals, long-term in vivo studies, CPDB compilation (AID 1745844); conditions: rat; strain Fischer 344; males; in feed; site: liver; lesion: hepatocellular adenoma + hepatocellular carcinoma + neoplastic nodule; dosed 74 weeks; study length 101 weeks
parameter: TD50 (mg/kg/day)
Supply the numeric figure in mg/kg/day, leaving out any unit text.

In plain terms, O=[N+]([O-])c1ccc2c3c(cccc13)CC2 has a documented TD50 of 71.4

---

tested on: rodent lifetime carcinogenesis bioassay, tumor incidence TD50; assay: carcinogenic potency in animals, long-term in vivo studies, CPDB compilation (AID 1745844); settings: rat; strain Fischer 344; females; by gavage; site: all sites; lesion: mononuclear-cell leukemia; dosed 91 weeks; study length 105 weeks
parameter: TD50 (mg/kg/day)
Supply the numeric figure in mg/kg/day, leaving out any unit text.

In plain terms, ClCC(Cl)CCl has a documented TD50 of 7.11

---

test system: rodent lifetime carcinogenesis bioassay, tumor incidence TD50; experiment: carcinogenic potency in animals, long-term in vivo studies, CPDB compilation (AID 1745844); details: rat; strain Fischer 344; females; in feed; site: Zymbal's gland; lesion: sebaceous adenocarcinoma; dosed 78 weeks; study length 107 weeks
parameter: TD50

The measured TD50 that COc1ccc(N)cc1N showed for rodent lifetime carcinogenesis bioassay, tumor incidence TD50 is 665 mg/kg/day

---

tested on: rodent lifetime carcinogenesis bioassay, tumor incidence TD50; experiment: carcinogenic potency in animals, long-term in vivo studies, CPDB compilation (AID 1745844); settings: rat; strain Fischer 344; females; in drinking water; site: esophagus; lesion: several types; types named in the paper; dosed 50 weeks; study length 75 weeks
parameter: TD50

In plain terms, CC(O)CN(CCO)N=O (stereo unspecified) has a documented TD50 of 6.74 mg/kg/day

---

test system: rodent lifetime carcinogenesis bioassay, tumor incidence TD50; assay: carcinogenic potency in animals, long-term in vivo studies, CPDB compilation (AID 1745844); conditions: mouse; strain B6C3F1; females; in feed; site: Harderian gland; lesion: carcinoma; dosed 104 weeks; study length 106 weeks
parameter: TD50 (mg/kg/day)
Supply the numeric figure in mg/kg/day, leaving out any unit text.

The measured TD50 that OCC(CO)(CBr)CBr showed for rodent lifetime carcinogenesis bioassay, tumor incidence TD50 is 323

---

tested on: rodent lifetime carcinogenesis bioassay, tumor incidence TD50; assay: carcinogenic potency in animals, long-term in vivo studies, CPDB compilation (AID 1745844); details: mouse; strain Swiss; females; in drinking water; site: bile duct; lesion: several types; types named in the paper; dosed 62 weeks; study length 62 weeks
parameter: TD50

In plain terms, CNN has a documented TD50 of 24.6 mg/kg/day

---

tested on: rodent lifetime carcinogenesis bioassay, tumor incidence TD50; assay: carcinogenic potency in animals, long-term in vivo studies, CPDB compilation (AID 1745844); conditions: rat; strain Fischer 344; females; inhaled; site: all sites; lesion: mononuclear-cell leukemia; dosed 104 weeks; study length 104 weeks
parameter: TD50
I'd appreciate it if you wrote the number followed by its unit.

In plain terms, C=CC(=C)Cl has a documented TD50 of 30.4 mg/kg/day

---

tested on: rodent lifetime carcinogenesis bioassay, tumor incidence TD50; test: carcinogenic potency in animals, long-term in vivo studies, CPDB compilation (AID 1745844); conditions: rat; strain Fischer 344; females; in feed; site: any site (literature study); lesion: several types; types named in the paper; dosed 104 weeks; study length 105 weeks
Entries annotated with measured TD50
Supply the numeric figure in mg/kg/day, leaving out any unit text.

Reference set (3 entries):
# compound, output-unit, test-value
measured = [
    ("OCC(CO)(CBr)CBr", "mg/kg/day", 94.4),
    ("ClC1(Cl)C2(Cl)C3(Cl)C4(Cl)C(Cl)(Cl)C5(Cl)C3(Cl)C1(Cl)C5(Cl)C24Cl (centres undefined)", "mg/kg/day", 21.9),
    ("CN(C)NC(=O)CCC(=O)O", "mg/kg/day", 3450),
]

Switching to the query record.
In plain terms, COc1ccc(C)cc1N has a documented TD50 of 93.8

---

tested on: rodent lifetime carcinogenesis bioassay, tumor incidence TD50; test: carcinogenic potency in animals, long-term in vivo studies, CPDB compilation (AID 1745844); conditions: mouse; strain C57BL/6NCrj; females; in feed; site: colon; lesion: adenocarcinoma; dosed 85 weeks; study length 85 weeks
parameter: TD50

In plain terms, Cc1cc2ncccc2c2nc(N)n(C)c12 has a documented TD50 of 92.8 mg/kg/day

---

tested on: rodent lifetime carcinogenesis bioassay, tumor incidence TD50; test: carcinogenic potency in animals, long-term in vivo studies, CPDB compilation (AID 1745844); conditions: mouse; strain B6C3F1; females; in drinking water; site: lung; lesion: alveolar/bronchiolar adenoma + alveolar/bronchiolar carcinoma; dosed 103 weeks; study length 104 weeks
parameter: TD50

# compound, parameter, test-value
data = [
    ("Nc1ccc(Cc2ccc(N)cc2)cc1", "TD50", "268 mg/kg/day"),
]

Switching to the query record.
In plain terms, Oc1ccccc1 has a documented TD50 of 18500 mg/kg/day

---

test system: rodent lifetime carcinogenesis bioassay, tumor incidence TD50; test: carcinogenic potency in animals, long-term in vivo studies, CPDB compilation (AID 1745844); conditions: mouse; strain Crj:BDF1; males; inhaled; site: kidney; lesion: renal-cell adenoma; dosed 104 weeks; study length 104 weeks
parameter: TD50

The measured TD50 that ClC(Cl)Cl showed for rodent lifetime carcinogenesis bioassay, tumor incidence TD50 is 1250 mg/kg/day

---

tested on: rodent lifetime carcinogenesis bioassay, tumor incidence TD50; test: carcinogenic potency in animals, long-term in vivo studies, CPDB compilation (AID 1745844); conditions: rat; strain August; males; by gavage; site: kidney; lesion: tubular-cell adenocarcinoma; dosed 103 weeks; study length 104 weeks
parameter: TD50
I'd appreciate it if you wrote the number followed by its unit.

In plain terms, ClC=C(Cl)Cl has a documented TD50 of 10800 mg/kg/day

---

tested on: rodent lifetime carcinogenesis bioassay, tumor incidence TD50; experiment: carcinogenic potency in animals, long-term in vivo studies, CPDB compilation (AID 1745844); conditions: rat; strain F344/DuCrj; males; in feed; site: liver; lesion: neoplastic nodule; dosed 61 weeks; study length 61 weeks
parameter: TD50 (mg/kg/day)
Supply the numeric figure in mg/kg/day, leaving out any unit text.

In plain terms, Cc1cnc2ccc3c(nc(N)n3C)c2n1 has a documented TD50 of 73.5

---

test system: rodent lifetime carcinogenesis bioassay, tumor incidence TD50; test: carcinogenic potency in animals, long-term in vivo studies, CPDB compilation (AID 1745844); details: mouse; strain B6C3F1; males; inhaled; site: liver; lesion: hepatocellular adenoma + hepatocellular carcinoma; dosed 52 weeks; study length 104 weeks
parameter: TD50 (mg/kg/day)
Supply the numeric figure in mg/kg/day, leaving out any unit text.

In plain terms, C=CC=C has a documented TD50 of 14.6

---

tested on: rodent lifetime carcinogenesis bioassay, tumor incidence TD50; test: carcinogenic potency in animals, long-term in vivo studies, CPDB compilation (AID 1745844); details: mouse; strain B6C3F1; females; in feed; site: liver; lesion: hepatocellular carcinoma; dosed 103 weeks; study length 104 weeks
Calls of active or inactive are those of the source. The rule behind the calls is not given here.
parameter: TD50

Reference set (2 entries):
# compound, TD50
records = [
    ("O=P(OCC(Br)CBr)(OCC(Br)CBr)OCC(Br)CBr (stereo not drawn)", "221 mg/kg/day"),
    ("CNc1ccc(N(CCO)CCO)cc1[N+](=O)[O-]", "208 mg/kg/day"),
]

In plain terms, Cc1noc(NS(=O)(=O)c2ccc(N)cc2)c1C has a documented TD50 of 2650 mg/kg/day (inactive)

---

tested on: rodent lifetime carcinogenesis bioassay, tumor incidence TD50; assay: carcinogenic potency in animals, long-term in vivo studies, CPDB compilation (AID 1745844); settings: rat; strain ACI/n; males; in feed; site: liver; lesion: neoplastic nodule; dosed 68 weeks; study length 68 weeks
parameter: TD50 (mg/kg/day)
Supply the numeric figure in mg/kg/day, leaving out any unit text.

In plain terms, O=C1c2ccccc2C(=O)c2c(O)cccc21 has a documented TD50 of 219
